Attribution: paper PMC10525570

# PROCEDURE_TEXT: MTT cytotoxicity assay, A9 cells
# Format: cell-based
# EXPERIMENTAL_CONDITIONS: mouse, read-out: MHV-1 (A9 Cells) CC50
Note to self: CC50 at 24 h under 80 µM means satisfied, ties and anything higher get not satisfied.

Worked cases, answers included:
NCCNC(=O)C(Cc1c[nH]c2ccccc12)NC(=O)c1cc(-c2ccc3ccccc3c2)ccc1N (centres unmarked) ... satisfied
NCCCCC(N)C(=O)NCCNC(=O)C(Cc1c[nH]c2ccccc12)NC(=O)c1cc(Br)ccc1NC(=O)c1ccc2ccccc2c1 (centres unmarked) ... satisfied
NCCNC(=O)C(Cc1c[nH]c2ccccc12)NC(=O)c1cc(-c2ccccc2-c2ccccc2)ccc1N (centres unmarked) ... satisfied

Note: attention shifts to another entry.
Identify whether the compound NCCCCC(N)C(=O)NCCNC(=O)C(Cc1c[nH]c2ccccc12)NC(=O)c1cc(Br)ccc1NC(=O)c1cccc(-c2ccccc2)c1 (centres unmarked) records CC50 at 24 h below 80 µM.
not satisfied

====

What IC50 was measured for each of the following?
# System: MHV-1
# PROCEDURE_TEXT: Virus pre-treatment (direct virus inactivation) plaque assay, MHV-1
# Format: cell-based, Murine hepatitis virus 1
# EXPERIMENTAL_CONDITIONS: Murine coronavirus; virus pre-treatment 3 h at 37 °C, plaque assay; read-out: MHV-1 IC50

These recorded examples may help you get a feel for the data.
NCCNC(=O)C(Cc1c[nH]c2ccccc12)NC(=O)c1cc(F)ccc1NC(=O)c1ccc2ccccc2c1 (stereo not shown) ... > 62.5 µM
NCCCCC(N)C(=O)NCCNC(=O)C(Cc1c[nH]c2ccccc12)NC(=O)c1cc(Br)ccc1NC(=O)c1ccc2ccccc2c1 (stereo not shown) ... 11.1 µM
N=C(N)NCCNC(=O)C(Cc1c[nH]c2ccccc12)NC(=O)c1ccccc1NC(=O)c1ccc2ccccc2c1 (stereo not shown) ... > 62.5 µM
COc1ccc(NC(=O)c2ccc3ccccc3c2)c(C(=O)NC(Cc2c[nH]c3ccccc23)C(=O)NCCNC(=N)N)c1 (stereo not shown) ... > 62.5 µM
NCCNC(=O)C(Cc1c[nH]c2ccccc12)NC(=O)c1cc(Br)ccc1NC(=O)c1ccc2ccccc2c1 (stereo not shown) ... > 62.5 µM

Need IC50 for each of these compounds.
1. N=C(N)NCCNC(=O)C(Cc1c[nH]c2ccccc12)NC(=O)c1cc(F)ccc1NC(=O)c1ccc2ccccc2c1 (stereo not shown)
2. NCCCCC(N)C(=O)NCCNC(=O)C(Cc1c[nH]c2ccccc12)NC(=O)c1cc(Br)ccc1NC(=O)c1cccc(-c2ccccc2)c1 (stereo not shown)

> 62.5 µM
11.8 µM

====

# System: MHV-1
# PROCEDURE_TEXT: Virus pre-treatment (direct virus inactivation) plaque assay, MHV-1
# Type: cell-based, Murine hepatitis virus 1
# EXPERIMENTAL_CONDITIONS: Murine coronavirus; virus pre-treatment 3 h at 37 °C, plaque assay; read-out: MHV-1 IC50
What IC50 was measured for each of the following?

N=C(N)NCCNC(=O)C(Cc1c[nH]c2ccccc12)NC(=O)c1cc(Cl)ccc1NC(=O)c1ccc2ccccc2c1 (stereo not drawn) [Compound 9] ... > 62.5 µM
N=C(N)NCCNC(=O)C(Cc1c[nH]c2ccccc12)NC(=O)c1cc(Br)ccc1NC(=O)c1ccc2ccccc2c1 (stereo not drawn) [Compound 7] ... > 62.5 µM
NCCNC(=O)C(Cc1c[nH]c2ccccc12)NC(=O)c1ccccc1NC(=O)c1ccc2ccccc2c1 (stereo not drawn) [Compound 1] ... > 62.5 µM
NCCCCC(N)C(=O)NCCNC(=O)C(Cc1c[nH]c2ccccc12)NC(=O)c1cc(Br)ccc1NC(=O)c1ccc(-c2ccccc2)cc1 (stereo not drawn) [Compound 16] ... 22.5 µM
NCCNC(=O)C(Cc1c[nH]c2ccccc12)NC(=O)c1cc(Cl)ccc1NC(=O)c1ccc2ccccc2c1 (stereo not drawn) [Compound 4] ... > 62.5 µM

Need IC50 for each of these compounds.
1. COc1ncc(-c2ccc(N)c(C(=O)NC(Cc3c[nH]c4ccccc34)C(=O)NCCN)c2)c(OC)n1 (stereo not drawn) [Compound 13]
2. NCCNC(=O)C(Cc1c[nH]c2ccccc12)NC(=O)c1cc(-c2ccc(-c3ccccc3)cc2)ccc1N (stereo not drawn) [Compound 12]

1. > 62.5 µM
2. > 62.5 µM

Need IC50 for each of these compounds.
1. NCCNC(=O)C(Cc1c[nH]c2ccccc12)NC(=O)c1cc(-c2ccccc2-c2ccccc2)ccc1N (stereo not drawn) [Compound 14]
2. COc1ccc(NC(=O)c2ccc3ccccc3c2)c(C(=O)NC(Cc2c[nH]c3ccccc23)C(=O)NCCN)c1 (stereo not drawn) [Compound 5]

6.3 µM
> 62.5 µM
